Catalogue of log10 IC50 readings, one per entry.
Tested on: SK-OV-3
Assay: Cytotoxicity assay (cell titer-glo and calcein AM), SK-OV-3
Details: read-out: Cytotoxicity IC50, SK-OV-3, CTG; SK-OV-3; CTG (cell titer-glo) readout; % error in parentheses
In plain terms, each number is the log10 of measured IC50 in µM.

In the examples that follow, each entry is paired with its recorded log10 IC50.
[
  {
    "Compound": "COc1cc2c(c(OC)c1OC)-c1ccc(OC)c(=O)cc1C(NC(=O)CN(OC)C1OCC(O)C(O)C1O)CC2 [Col22, L-riboside]",
    "Reported Endpoint": "log10 IC50",
    "Value Observed": 0.68
  },
  {
    "Compound": "COc1cccc2c1C(=O)c1c(O)c3c(c(O)c1C2=O)C[C@@](O)(C(=O)CO)C[C@@H]3O[C@H]1C[C@H](N)[C@H](O)[C@H](C)O1 [doxorubi]",
    "Reported Endpoint": "log10 IC50",
    "Value Observed": -0.40
  },
  {
    "Compound": "COc1cc2c(c(OC)c1OC)-c1ccc(OC)c(=O)cc1[C@@H](NC(=O)CN(OC)[C@@H]1OC[C@@H](O)[C@H](O)[C@@H]1O)CC2 [Col1, D-lyxoside]",
    "Reported Endpoint": "log10 IC50",
    "Value Observed": 0.60
  },
  {
    "Compound": "COc1cc2c(c(OC)c1OC)-c1ccc(OC)c(=O)cc1[C@@H](NC(=O)CN(OC)[C@@H]1O[C@H](CO)[C@@H](O)C[C@H]1O)CC2 [Col3, 3-deoxy-D-glucoside]",
    "Reported Endpoint": "log10 IC50",
    "Value Observed": 0.65
  },
  {
    "Compound": "COc1cc2c(c(OC)c1OC)-c1ccc(OC)c(=O)cc1[C@@H](NC(=O)CN(OC)[C@@H]1O[C@H](C(=O)O)[C@H](O)[C@H](O)[C@H]1O)CC2 [Col18, D-Galacturonoside]",
    "Reported Endpoint": "log10 IC50",
    "Value Observed": 0.03
  }
]

# value lookup — system SK-OV-3, readout log10 IC50, item COc1cc2c(c(OC)c1OC)-c1ccc(OC)c(=O)cc1C(NC(=O)CN(OC)C1OCC(O)C(O)C1O)CC2 [Col25, L-arabinoside]
0.93

Origin of measurements: patent US20130012466A1
